Reported pIC50 against Epidermal growth factor receptor (Homo sapiens), gathered from multiple publications, appears below.
pIC50: −log10 of the molar value.
observation type: pIC50

(P) C#Cc1cccc(Nc2ncnc3nc(Nc4ccc(CN(CC(C)O)CC(C)O)cc4)sc23)c1 (stereo not shown)
(Q) Cc1nn(C)c2c1/C=C/c1n[nH]c3ccc(cc13)-c1cnn(C)c1CN(C)C[C@@H](C)O2 (single isomer, unassigned)
(R) CC(=O)Nc1cccc(C#Cc2cc(C(=O)/N=c3\[nH]c4ccc(CN5CCN(C)CC5)cc4n3CC(C)(C)O)cc(C)n2)c1C=O
Qu. Please give the order of these compounds when sorted by pIC50, largest value leading. Response field: labels, in requested order.
Ans. P, R, Q
(P: 7.56, R: 6.94, Q: 6.62)

----------
Reported pIC50 against Epidermal growth factor receptor (Homo sapiens, UniProt P00533), gathered from multiple publications, appears below.
pIC50: −log10 of the molar value.
observation type: pIC50

COc1cc(N(C)CCN(C)C)ccc1Nc1nc(Nc2cccc3c2N(S(C)(=O)=O)CC3)c2cc[nH]c2n1; 6.08
COc1cc(Nc2ncc(Br)c(Nc3ccc(-c4cnn(C)n4)c(F)c3P(C)(C)=O)n2)c(C)cc1N1CCC(N2CCN(C)CC2)CC1; 7.92
CC#CC(=O)N1CCCC[C@H]1c1nc(-c2ccc(C(=O)Nc3cc(-c4ccc(F)cc4)ccn3)cc2)c(C(N)=O)n1N; 5.96
Cc1nn(C)c2c1/C=C/c1n[nH]c3ccc(cc13)-c1cnn(C)c1O[C@@H]1CCCN(C2)C1; 7.03
CN(Cc1ccc(Nc2nc3ncnc(Nc4ccc(F)c(Cl)c4)c3s2)cc1)C[C@H]1CCCO1; 7.96
COC/C=C/C(=O)N[C@@H](C)c1nc(-c2ccc(C(=O)Nc3ccc(C)cn3)cc2)c2c(N)nccn12; 6.44
COc1cc(N2CCC(N3CCN(C)CC3)CC2)ccc1Nc1ncc(Cl)c(Nc2cccc3c2N(C(C)=O)CC3)n1; 7.68
CC(C)(O)Cn1/c(=N/C(=O)c2ccnc(COc3cccc(O)c3C=O)c2)[nH]c2ccccc21; 6.50

(I) CN1CCN(Cc2ccc3[nH]/c(=N\C(=O)c4cc(C=O)nc(Oc5cccc(O)c5C=O)c4)n(CC(C)(C)O)c3c2)CC1
(II) COc1cc(N2CCC3(CC2)CN(C)C3)c(C)cc1Nc1ncc(Br)c(Nc2cccc3c2N(S(C)(=O)=O)CC3)n1
Qu. In terms of reported pIC50, does I or II have the smaller number? Indicate which entry you chose by stating its label.
Ans. I

----------
Reported IC50 against Epidermal growth factor receptor (Homo sapiens), gathered from multiple publications, appears below.
observation type: IC50 (nM)

Use these answered entries as a reference point.
Fc1ccccc1-c1nc(Nc2ccncc2)c2ccccc2n1; 4200
C=CC(=O)N[C@H]1CCc2c(-c3cnc4ccccc4c3)c3c(N)ncnc3n2C1 (single isomer, unassigned); 4.3
CN1CCN(Cc2ccc3[nH]/c(=N\C(=O)c4cc(Cl)nc(Cc5cccc(O)c5C=O)c4)n(CC(C)(C)O)c3c2)CC1; 23.8
Cc1cc(Nc2ncc(Cl)c(Nc3ccccc3P(C)(C)=O)n2)ccc1N1CC2(CC(N)C2)C1; 28
C[C@H]1CN(C)Cc2c(c(OC3CCNCC3)nn2C)/C=C/c2n[nH]c3ccc(cc23)-c2cnn(C)c2O1; 103

(A) COc1ccc(Nc2nc3ncnc(Nc4ccc(F)c(Cl)c4)c3s2)cc1
(B) COc1cc(N2CCN(C)[C@@H](C)C2)c(C)cc1Nc1ncc(Br)c(Nc2cccc3c2N(S(C)(=O)=O)CC3)n1
Qu. In terms of reported IC50, does A or B have the smaller number? Indicate which entry you chose by stating its label.
Ans. B
(B: 12.1 nM, A: 117 nM)
